Reported values of polymerase ribozyme fitness (log ratio) for individual entries
B1: TPR t1 (parent)
chain: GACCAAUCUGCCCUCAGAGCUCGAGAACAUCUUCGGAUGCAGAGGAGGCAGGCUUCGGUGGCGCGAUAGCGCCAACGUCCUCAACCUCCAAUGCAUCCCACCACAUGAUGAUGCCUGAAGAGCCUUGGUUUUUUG

variants of: B1; assay: polymerase ribozyme fitness, log enrichment relative to wild type (log ratio); higher = more active; in vitro selection for triplet polymerase activity
No unit in the answer, only the number.

VARIANT	MEASURED VALUE
A41U G51A U87G U112A A119G	-4.72

Here is another variant to look at.
Item C56A G63A G93A A100C C124U has what recorded polymerase ribozyme fitness (log ratio)?
-4.2
